Subject Of Test: T1, full-length human 14-3-3ζ fused to the C terminus of MBP (human, UniProt P63104 1-245)
T1 chain: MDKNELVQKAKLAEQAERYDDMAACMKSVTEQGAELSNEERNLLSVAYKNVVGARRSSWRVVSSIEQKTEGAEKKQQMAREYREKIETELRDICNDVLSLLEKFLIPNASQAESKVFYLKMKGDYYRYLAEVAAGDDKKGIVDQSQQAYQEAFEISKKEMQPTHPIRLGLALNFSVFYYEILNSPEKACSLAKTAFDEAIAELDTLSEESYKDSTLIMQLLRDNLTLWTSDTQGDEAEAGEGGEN
Assay Details: FP; with FSC
Non-standard residues stand in square brackets, D forms with d. No end group written: not given here. *: point of attachment. Biotin = O=C1N[C@H]2[C@H](CS[C@H]2CCCCC(=O)*)N1; pT = C[C@@H](OP(=O)(O)O)[C@H](N)C(=O)O; ttds = NCCCOCCOCCOCCCNC(=O)CCC(=O)*
Quantity Kind: Kd
Report as: number unit

Query: Report Kd for {Biotin-ttds}-RLQRRRE[pT]QV [HPV18 E6 phospho-PBM peptide p18E6] please.
Result: 37.3 µM
